experiment: protein stability index of a GFP-peptide fusion (yeast GPS) (PSI 1-4); higher = more stable; sorted into four equal gates, so the index is relative within each strain; settings: pdr5∆
Kindly state protein stability index for each of the entries shown.
API note: the answer field is a bare number with no unit suffix.

Fill in the blank: the reported protein stability index of FSRHAQQQTSTFNSKPV [SIR4] is ____.
2.82

Also ENVEKKEAALKTMIKTI [SMC2] , if possible.
2.29

Also IELIDYDKLPAGQNATV [RET1] , if possible.
1.95

Also SLINSHLKILASSNFPF [RPC82] , if possible.
2.3

Also NNGSSDKSLDSSNASFN [MED1] , if possible.
3.04

Also HKQGSSYVAVLGMGKAV [POP7] , if possible.
1.71

Also TQPKSSSSMDMQANTNA [SSN3] , if possible.
2.43

Also LPLISTDVLEISKQRTF [YMR129W/POM152] , if possible.
2.74

Also SSRLEFVKGISRDIKAL [YML103C/NUP188] , if possible.
1.81

Also WSTTGDNGELDLSGFNI [MED2] , if possible.
3.19

Also LVGSEIYEKLKNYLKNY [CDC53] , if possible.
1.21

Also AFSFGAKPDEKKNDEVS [YJL041W/NSP1] , if possible.
3.19

Also GTGKTLLAKAVANQTSA [RPT2] , if possible.
1.95

Also RSSRLHIVYSLLVNPDI [YML103C/NUP188] , if possible.
2.01

Also IVMVWLKENTYVMERPK [YDL116W/NUP84] , if possible.
1.81

Also QNDTPMFKLGNFESPVL [YLR018C/POM34] , if possible.
2.48

Also LPENIILTSLMRSKLEK [CSN9] , if possible.
3.05

Also SSTITGDVVLAAAYSHE [RPL5] , if possible.
2.56

Also PGVDVSAEEQLRKIDML [SRB7] , if possible.
2.61

Also VDLIEKFLRYNPLEKRD [RPB10] , if possible.
3.27

Also QLILSDVDPEFYLKYVD [RET1] , if possible.
2.95

Also LHLAVGKKWFEVSQFLI [NAS6] , if possible.
1.63

Also VAESFTDEADSSMTEAS [SNF2] , if possible.
3.28

Also IDQAHVSEITKLKFFPS [RPN14] , if possible.
3.01

Also EEELFEVTKEEDIIANY [RRP43] , if possible.
3.08

Also KMIILDKLLKRLKEKGS [ISW2] , if possible.
1.32

Also SKSYTPRKLVLSSGENR [SMC4] , if possible.
1.82

Also ADNGEEYLTLNDFNDLN [MED2] , if possible.
3.3

Also DPNLELDQVGVPKSIAK [RPO21] , if possible.
3.18

Also LKLPLEINYAFSMDEEF [SIR3] , if possible.
2.18

Also TKKISNFNSSLHKRQQF [YJL039C/NUP192] , if possible.
2.79

Also TVHSKSRTRAHAQSKRE [RPL19A] , if possible.
3.07

Also QCYKIYDLVILKSGLPL [YMR129W/POM152] , if possible.
2.04

Also VWNYTFMGTAFNQEGDY [PRP8] , if possible.
3.09

Also ESAAVYNGRGARERKTA [SNF2] , if possible.
2.3

Also VINPQQLLKGLSLSFSK [DSN1] , if possible.
3.1

Also PDGLGEVGMKVQSGQIY [RET1] , if possible.
3.15

Also VEWNDQVEKLGKKMEAR [RPN9] , if possible.
3.28

Also MNDVINTEEVNRLEKEQ [LIN1] , if possible.
3.31

Also IKTQQHILPEVPPVENF [TAF14] , if possible.
2.42

Also NSSEKNNNNNNNNNNNN [MED2] , if possible.
3.03

Also KNGLGLNFSTTAPANTT [MED2] , if possible.
2.38
